target under test: T1, ARHGEF11, O15085
T1 sequence (O15085 42-136, limits assumed, looked up): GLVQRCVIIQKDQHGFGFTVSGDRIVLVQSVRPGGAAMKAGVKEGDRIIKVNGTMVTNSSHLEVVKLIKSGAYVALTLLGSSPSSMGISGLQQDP
protocol details: holdup assay
Parameters: key: below the threshold = too weak to quantify, mostly under pKd 3.1 to 4
condition details: plain residues with an end cap or a label only (N-terminal biotin on a linker: ado-ado)
property: pKd

1. EDPRVEVTQF [SLC22A9, Q8IVM8]	below the threshold
2. NISYRRESAI [KCNJ4, P48050]	below the threshold
3. IDESKKEWLI [CNTNAP2, Q9UHC6]	below the threshold
4. EPQYQPGENL [SRC, P12931]	below the threshold
